- System: bacterial isolates
- Protocol notes: microbe, parasite or virus in culture
- Type: cell-based
- Experimental context: A. baumannii ABI003
Some sequences, each annotated with its measured Peptide MIC + Amikacin.
Return type: number; implicit unit µg/mL.

Past entries and their recorded results:
KKWWRRALQGLKTAGPAIQSVLNK [MBI 21A2] : 4
KWKSFIKKLTSAAKKVVTTAKPLISS [MBI 26] : 2
KWKLFIKKLTPAVKKVLLTGLPALIS [MBI 29F1] : 2

We next turn to a different sequence, shown below.
Challenge: Consider the sequence shown here: ILRWPWWPWRRKIMILKKAGS [MBI 11B16CN] What is its recorded Peptide MIC + Amikacin?
Response given: 8

The origin of these recorded values is patent US20020035061A1.
